Target: T1, monkey GPC3-His protein (monkey)
T1 construct: Bought protein; also called monkey GPC3 protein
Assay: ELISA, monkey GPC3-His coated; antibody 0.11 nM

binder: hAb001H1aL1b (antibody, human IgG1, V domains shown, Humanized F2.169.2, H1a+L1b) VH: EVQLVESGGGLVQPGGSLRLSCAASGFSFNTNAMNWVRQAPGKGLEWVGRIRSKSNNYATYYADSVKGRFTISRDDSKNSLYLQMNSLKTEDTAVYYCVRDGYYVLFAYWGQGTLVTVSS VL: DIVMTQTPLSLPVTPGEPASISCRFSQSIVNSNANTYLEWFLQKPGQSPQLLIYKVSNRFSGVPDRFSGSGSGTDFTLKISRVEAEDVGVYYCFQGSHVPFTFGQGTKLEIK
OD450 nm: 1.99
//
binder: hAb003LH2L1b (antibody, human IgG1, V domains shown, Humanized F2.154.1, H2+L1b) VH: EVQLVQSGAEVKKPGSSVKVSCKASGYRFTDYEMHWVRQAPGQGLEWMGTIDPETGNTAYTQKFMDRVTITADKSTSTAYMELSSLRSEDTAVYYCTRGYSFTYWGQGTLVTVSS VL: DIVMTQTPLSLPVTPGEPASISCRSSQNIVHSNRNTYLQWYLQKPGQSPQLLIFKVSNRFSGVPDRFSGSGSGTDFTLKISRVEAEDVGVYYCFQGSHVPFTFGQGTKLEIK
OD450 nm: 1.96
//
binder: hAb001H1aL1a (antibody, human IgG1, V domains shown, Humanized F2.169.2, H1a+L1a) VH: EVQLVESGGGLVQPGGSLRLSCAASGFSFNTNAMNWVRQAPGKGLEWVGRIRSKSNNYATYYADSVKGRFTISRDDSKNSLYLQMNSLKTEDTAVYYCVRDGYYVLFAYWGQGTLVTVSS VL: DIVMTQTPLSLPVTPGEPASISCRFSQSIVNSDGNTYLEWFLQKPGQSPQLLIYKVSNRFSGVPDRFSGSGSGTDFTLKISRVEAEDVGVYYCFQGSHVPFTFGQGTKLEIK
OD450 nm: 1.44
//
binder: hAb005LH1L1b (antibody, human IgG1, V domains shown, Humanized F3.54.12, H1+L1b) VH: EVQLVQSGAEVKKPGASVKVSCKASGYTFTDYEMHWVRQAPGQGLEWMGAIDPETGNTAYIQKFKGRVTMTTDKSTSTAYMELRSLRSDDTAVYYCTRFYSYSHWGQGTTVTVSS VL: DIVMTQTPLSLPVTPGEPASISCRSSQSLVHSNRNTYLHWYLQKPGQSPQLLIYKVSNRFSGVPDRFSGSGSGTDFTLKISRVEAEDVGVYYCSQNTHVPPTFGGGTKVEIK
OD450 nm: 0.949
//
binder: hAb001H2L1a (antibody, human IgG1, V domains shown, Humanized F2.169.2, H2+L1a) VH: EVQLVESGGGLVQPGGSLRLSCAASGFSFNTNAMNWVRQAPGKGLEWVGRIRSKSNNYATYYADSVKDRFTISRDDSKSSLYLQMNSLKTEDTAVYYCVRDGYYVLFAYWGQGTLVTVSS VL: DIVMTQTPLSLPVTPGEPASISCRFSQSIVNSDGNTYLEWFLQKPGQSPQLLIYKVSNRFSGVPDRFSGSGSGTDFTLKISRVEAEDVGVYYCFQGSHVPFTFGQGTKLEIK
OD450 nm: 1.13
//
binder: hAb006LH3L1b (antibody, human IgG1, V domains shown, Humanized F3.38.7, H3+L1b) VH: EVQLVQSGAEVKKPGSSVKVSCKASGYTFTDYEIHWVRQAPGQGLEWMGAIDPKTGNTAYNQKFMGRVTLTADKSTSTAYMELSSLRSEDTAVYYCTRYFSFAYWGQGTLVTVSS VL: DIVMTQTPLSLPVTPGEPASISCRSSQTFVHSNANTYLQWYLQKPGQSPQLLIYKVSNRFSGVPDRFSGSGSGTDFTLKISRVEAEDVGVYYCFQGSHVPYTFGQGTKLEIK
OD450 nm: 1.99
//
binder: hAb001H1L1a (antibody, human IgG1, V domains shown, Humanized F2.169.2, H1+L1a) VH: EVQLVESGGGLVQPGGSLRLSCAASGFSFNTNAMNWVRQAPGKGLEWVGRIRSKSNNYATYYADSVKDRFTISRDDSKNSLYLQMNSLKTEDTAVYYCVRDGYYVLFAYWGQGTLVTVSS VL: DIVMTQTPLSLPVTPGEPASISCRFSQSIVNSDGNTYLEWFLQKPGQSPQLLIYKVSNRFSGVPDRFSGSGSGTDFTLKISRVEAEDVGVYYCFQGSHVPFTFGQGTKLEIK
OD450 nm: 1.23

meta.source: patent US20260116991A1
